Target: CYP450 2C19 (Homo sapiens)
Construct: purchased Invitrogen (Paisley, UK), Pan Vera Vivid screening kits; host or cells: baculosomes
Sequence (P33261 whole entry): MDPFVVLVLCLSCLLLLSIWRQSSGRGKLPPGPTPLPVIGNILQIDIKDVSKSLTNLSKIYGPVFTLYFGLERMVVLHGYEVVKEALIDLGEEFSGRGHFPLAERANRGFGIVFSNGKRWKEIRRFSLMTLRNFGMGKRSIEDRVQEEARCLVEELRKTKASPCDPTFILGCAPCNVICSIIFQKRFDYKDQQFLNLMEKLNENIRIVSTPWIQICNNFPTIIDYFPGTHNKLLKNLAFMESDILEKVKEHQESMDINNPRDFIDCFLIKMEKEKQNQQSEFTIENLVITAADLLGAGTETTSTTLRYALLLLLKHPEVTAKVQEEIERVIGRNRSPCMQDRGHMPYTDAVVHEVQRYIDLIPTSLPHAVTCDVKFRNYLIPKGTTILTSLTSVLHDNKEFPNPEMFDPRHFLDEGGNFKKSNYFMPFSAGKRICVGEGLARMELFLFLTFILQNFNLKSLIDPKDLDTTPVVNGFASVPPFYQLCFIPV
Experiment: Potency against cytochrome P450 2C19 (Vivid screening kit)
Assay type: in vitro ADME
Conditions: tested at a concentration of 10 μM
assay.metric: IC50

[Q] // Input: "NC[C@@](O)(c1ccc(Cl)cc1)c1ccc(-c2cn[nH]c2)cc1" . Output its IC50 only.
[A] > 10 µM

---

Target: CYP450 1A2 (Homo sapiens, UniProt P05177)
Construct: purchased Invitrogen (Paisley, UK), Pan Vera Vivid screening kits; host or cells: baculosomes
Sequence (P05177 whole entry): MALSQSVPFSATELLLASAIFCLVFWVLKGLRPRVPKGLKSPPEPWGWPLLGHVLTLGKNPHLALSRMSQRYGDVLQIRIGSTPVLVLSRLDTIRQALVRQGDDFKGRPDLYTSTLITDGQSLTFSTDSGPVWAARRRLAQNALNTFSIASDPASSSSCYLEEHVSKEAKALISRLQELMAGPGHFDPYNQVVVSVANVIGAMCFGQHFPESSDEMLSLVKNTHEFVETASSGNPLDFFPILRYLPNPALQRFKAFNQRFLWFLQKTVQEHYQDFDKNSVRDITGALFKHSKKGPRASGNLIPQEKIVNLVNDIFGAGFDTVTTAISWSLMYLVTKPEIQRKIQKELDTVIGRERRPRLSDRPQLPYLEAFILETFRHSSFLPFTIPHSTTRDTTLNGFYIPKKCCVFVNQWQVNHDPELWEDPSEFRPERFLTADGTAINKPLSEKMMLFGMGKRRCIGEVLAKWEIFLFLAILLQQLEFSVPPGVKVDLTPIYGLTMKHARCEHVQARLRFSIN
Test: Potency against cytochrome P450 1A2 (Vivid screening kit)
Format: in vitro ADME
Conditions: tested at a concentration of 10 μM
assay.metric: IC50

[Q] // Input: NC[C@@](O)(c1ccc(Cl)cc1)c1ccc(-c2cn[nH]c2)cc1 [compound of formula (I)] . Output its IC50 only.
[A] > 10 µM
